src = patent US20020065219A1

System: Enterococcus faecalis A20688
Experiment: MIC, broth micro dilution assay (NCCLS)
Type: cell-based
Conditions: Mueller-Hinton medium, 35° C., 18 hours
Collected MIC (μg/mL) against Enterococcus faecalis A20688 values appear next to each entry.
Give the quantity in µg/mL, number only.

INSERT INTO measurements (compound, test_system, u, observed_measurement) VALUES
  ('COC(C)=C1NC(=O)C(C(C)O)NC(=O)c2csc(n2)-c2cc(O)c(-c3nc(C(=O)NC(CSCC(NC(C)=O)C(=O)O)C(N)=O)cs3)nc2-c2csc(n2)C2COC(=O)c3c4c5c(cccc5n3O)COC(=O)C(OC3CC(C)(O)C(N(C)C)C(C)O3)C(OC4)C(NC(=O)c3csc1n3)c1nc(cs1)C(=O)N2 (centres unmarked)', 'Enterococcus faecalis A20688', 'µg/mL', 8.0);

For the next question, use this compound.
Consider the compound COC(C)=C1NC(=O)C(C(C)O)NC(=O)c2csc(n2)-c2cc(O)c(-c3nc(C(=O)NC(CN(C)CCCNc4ccncc4)C(N)=O)cs3)nc2-c2csc(n2)C2COC(=O)c3c4c5c(cccc5n3O)COC(=O)C(OC3CC(C)(O)C(N(C)C)C(C)O3)C(OC4)C(NC(=O)c3csc1n3)c1nc(cs1)C(=O)N2 (centres unmarked) . State its measured MIC (μg/mL) against Enterococcus faecalis A20688.
0.5

* * *

System: Enterococcus faecalis A20688
Test: MIC, broth micro dilution assay (NCCLS)
Type: cell-based
Conditions: Mueller-Hinton medium, 35° C., 18 hours
Each record here notes measured MIC (μg/mL) against Enterococcus faecalis A20688.
Dear colleague, please return just the value in µg/mL, with no unit written.

Use the examples below as a reference point.
INSERT INTO results (compound, u, observed_measurement) VALUES
  ('CO/C(C)=C1/NC(=O)C(C(C)O)NC(=O)c2csc(n2)-c2cc(O)c(-c3nc(C(=O)NC(CN4CCN(C(C)=O)CC4)C(N)=O)cs3)nc2-c2csc(n2)C2COC(=O)c3c4c5c(cccc5n3O)COC(=O)C(O[C@H]3C[C@](C)(O)[C@H](N(C)C)[C@H](C)O3)C(OC4)C(NC(=O)c3csc1n3)c1nc(cs1)C(=O)N2 (stereo partly drawn)', 'µg/mL', 2.0),
  ('CO/C(C)=C1/NC(=O)C(C(C)O)NC(=O)c2csc(n2)-c2cc(O)c(-c3nc(C(=O)NC(CN[C@@H](C)c4ccccc4)C(N)=O)cs3)nc2-c2csc(n2)C2COC(=O)c3c4c5c(cccc5n3O)COC(=O)C(O[C@H]3C[C@](C)(O)[C@H](N(C)C)[C@H](C)O3)C(OC4)C(NC(=O)c3csc1n3)c1nc(cs1)C(=O)N2 (stereo partly drawn)', 'µg/mL', 0.25);

Attention now turns to another entry.
Please look at CO/C(C)=C1/NC(=O)C(C(C)O)NC(=O)c2csc(n2)-c2cc(O)c(-c3nc(C(=O)NC(CN(C)CCO)C(N)=O)cs3)nc2-c2csc(n2)C2COC(=O)c3[nH]c4cccc5c4c3COC(C(O[C@H]3C[C@](C)(O)[C@H](N(C)C)[C@H](C)O3)C(=O)OC5)C(NC(=O)c3csc1n3)c1nc(cs1)C(=O)N2 (stereo partly drawn) and tell me its recorded MIC (μg/mL) against Enterococcus faecalis A20688 on Enterococcus faecalis A20688.
0.125
